test system: TTR; experiment: EC50 and maximum editing in primary human hepatocytes treated with LNP formulated U-depleted Spy Cas9 mRNA and sgRNAs (Tables 19, 21); type: cell-based; parameters: key: % of sequence reads with indels or substitutions over total reads; details: Table 19, LNP with U-depleted Spy Cas9 mRNA and human specific sgRNAs, dose response
Strand notation (5' to 3'): a small letter for the sugar, then the base; units joined by * are phosphorothioate-linked, units joined directly phosphodiester-linked; [ ] holds rarer units or linkages, { } end groups; capitals alone tell only the bases. m = 2'-O-methyl; r = 2'-OH (RNA)
MEASURED METRIC: Max Editing

| MOLECULE | VAL |
| --- | --- |
| G000493: TTR sgRNA modified sequence, Human, SEQ ID No. 100; guide sequence of CR003368 (nucleic acid) guide: mA*mA*mG*rUrGrCrCrUrUrCrCrArGrUrArArGrArUrUrGrUrUrUrUrArGrAmGmCmUmAmGmAmAmAmUmAmGmCrArArGrUrUrArArArArUrArArGrGrCrUrArGrUrCrCrGrUrUrArUrCrAmAmCmUmUmGmAmAmAmAmAmGmUmGmGmCmAmCmCmGmAmGmUmCmGmGmUmGmCmU*mU*mU*mU | 63.95 |
| G000570: TTR sgRNA modified sequence, Human, SEQ ID No. 111; guide sequence of CR003347 (nucleic acid) guide: mC*mA*mU*rUrGrArUrGrGrCrArGrGrArCrUrGrCrCrUrGrUrUrUrUrArGrAmGmCmUmAmGmAmAmAmUmAmGmCrArArGrUrUrArArArArUrArArGrGrCrUrArGrUrCrCrGrUrUrArUrCrAmAmCmUmUmGmAmAmAmAmAmGmUmGmGmCmAmCmCmGmAmGmUmCmGmGmUmGmCmU*mU*mU*mU | 98.22 |
| G000480: TTR sgRNA modified sequence, Human, SEQ ID No. 87; guide sequence of CR003353 (nucleic acid) guide: mA*mA*mA*rGrGrCrUrGrCrUrGrArUrGrArCrArCrCrUrGrUrUrUrUrArGrAmGmCmUmAmGmAmAmAmUmAmGmCrArArGrUrUrArArArArUrArArGrGrCrUrArGrUrCrCrGrUrUrArUrCrAmAmCmUmUmGmAmAmAmAmAmGmUmGmGmCmAmCmCmGmAmGmUmCmGmGmUmGmCmU*mU*mU*mU | 98.69 |
